Test system: MCF7 breast
Assay: NCI-60 one-dose screen, 48 h (100 = growth as untreated, 0 = no growth, -100 = all killed)
Settings: 10 µM unless noted
Procedure: Growth inhibition of the MCF7 human tumor cell line is measured as a screen for anti-cancer activity. Cells are grown in 96 well plates and exposed to the test compound for 48 hours. Compounds are tested at a single concentration, which is 10^-5 M for most compounds. The reported endpoint is percent growth (GI% or GIPRCNT), where numbers from 0 - 100% represent growth inhibition, and numbers from -100% - 0 represent cell death. For example, a value of 40 represents 60% growth inhibition. […]
Compounds without any hit were thinned out: in the full panel of roughly 83,000, 20% have a hit. The source made the active and inactive calls. How the source made its calls: active means growth percent below 10; inactive means the rest.
growth values by entry

molecule="COc1ccc(C2CC(c3cccc(Nc4ccnc5cc(Cl)ccc45)c3)=NN2C=O)cc1 (configuration not stated)" metric=growth experimental_result="22.4% (inactive)"

Lookup: Using known records, supply growth for COc1ccc2c(c1)[nH]c(=O)c1c3cc(OC)c(OC)cc3cn21
Found: 17.5% (inactive)

Lookup: # return recorded growth for entry Cc1cc(=O)n2n1-c1ccc(Cl)cc1NC(=O)C2
Found: 94.1% (inactive)

Lookup: Supply recorded growth for CN1C(=O)/C(=C/c2nc(-c3cccc(F)c3)n3ccccc23)c2ccccc21 here.
Found: 44.3% (inactive)

Lookup: Supply growth value. Item: C[N+]1(CCC[N+]2(C)C[C@@H]3[C@H](C2)[C@@H]2C=C[C@H]3C2)CCOCC1 (some centres not stated)
Found: 107% (inactive)

Lookup: Using the record for CCN(CC)CCCCNc1c2ccccc2[n+](C)c2c1[nH]c1ccccc12 , state its measured growth.
Found: -7.18% (active)

Lookup: Look up growth of CCN(CC)CCCNCCCNc1cc(OC)cc2cccnc12 and report it.
Found: -46.8% (active)

Lookup: Report growth, nothing else, for this molecule: N#CCNc1ccccc1N
Found: 88.8% (inactive)

Lookup: Identify the reported growth for the following entry. O=Cc1c[nH]c2ccc(NC(=O)OCc3ccccc3)cc12
Found: 100% (inactive)

Lookup: Please supply the value of reported growth for the item COc1ccc(-c2cnnn2-c2cc(OC)c3c(c2)OCO3)cc1
Found: 17.8% (inactive)

Lookup: Tell us which growth value is on record for O=NC1CC=CCC1c1ccccc1 (configuration not stated)
Found: 108% (inactive)

Lookup: Please report the measured growth for O=C(CCc1nnc(SCc2ccccc2)s1)c1nc2ccccc2[nH]1
Found: 92.1% (inactive)
